# System: Escherichia coli TOP10
# method-notes: shrunken log2 fold change of peptide-encoding DNA abundance (4.5 h post-induction vs induction); higher = less antimicrobial activity (less host growth inhibition)
# conditions-used: time post-induction: 4.5 h; library: site-saturation at positions 5, 18, 19, 20
reported-endpoint: shrunken log2 fold change
Just the number, please, no unit attached.

The cases that follow already have their shrunken log2 fold change on record.
sequence-chain	reported-endpoint	reported-measurement
RRIRERPPRLPRPRPRPKRIPRP	shrunken log2 fold change	0.103
RRIRFRPPRLPRPRPRPVMNPRP	shrunken log2 fold change	-0.548
RRIRDRPPRLPRPRPRPWCVPRP	shrunken log2 fold change	0.083
RRIRMRPPRLPRPRPRPCAFPRP	shrunken log2 fold change	0.121
RRIRLRPPRLPRPRPRPKHLPRP	shrunken log2 fold change	-0.364

The sequence RRIRPRPPRLPRPRPRPVPYPRP on Escherichia coli TOP10: shrunken log2 fold change was -0.253

The sequence RRIRYRPPRLPRPRPRPWWPPRP on Escherichia coli TOP10: shrunken log2 fold change was -0.254

The sequence RRIRWRPPRLPRPRPRPELVPRP on Escherichia coli TOP10: shrunken log2 fold change was 0.605

The sequence RRIRFRPPRLPRPRPRPMRYPRP on Escherichia coli TOP10: shrunken log2 fold change was 0.0824

The sequence RRIRKRPPRLPRPRPRPNWEPRP on Escherichia coli TOP10: shrunken log2 fold change was 0.0515

The sequence RRIRRRPPRLPRPRPRPRLCPRP on Escherichia coli TOP10: shrunken log2 fold change was 0.472

====

Reported values of shrunken log2 fold change for individual entries
# Test system: Escherichia coli TOP10
# method-notes: shrunken log2 fold change of peptide-encoding DNA abundance (4.5 h post-induction vs induction); higher = less antimicrobial activity (less host growth inhibition)
# conditions-used: time post-induction: 4.5 h; library: site-saturation at positions 5, 18, 19, 20

sequence-chain	shrunken log2 fold change
RRIRGRPPRLPRPRPRPDHCPRP	0.0254
RRIRIRPPRLPRPRPRPPIAPRP	-0.109
RRIRMRPPRLPRPRPRPITEPRP	-0.012

Memo: RRIRVRPPRLPRPRPRPHNIPRP , reported shrunken log2 fold change: -0.392

Memo: RRIRCRPPRLPRPRPRPWPSPRP , reported shrunken log2 fold change: -0.0603

Memo: RRIRQRPPRLPRPRPRPEIIPRP , reported shrunken log2 fold change: 0.0359

Memo: RRIRNRPPRLPRPRPRPKSSPRP , reported shrunken log2 fold change: -0.0182

Memo: RRIRKRPPRLPRPRPRPATIPRP , reported shrunken log2 fold change: 0.00392

Memo: RRIRQRPPRLPRPRPRPLNSPRP , reported shrunken log2 fold change: -0.0233

Memo: RRIRVRPPRLPRPRPRPSRIPRP , reported shrunken log2 fold change: 0.0876

Memo: RRIRSRPPRLPRPRPRPKGNPRP , reported shrunken log2 fold change: -0.144

====

# Test system: Escherichia coli TOP10;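 note: peptides expressed intracellularly from a pBAD plasmid library in pooled LB shake-flask culture, induced with 0.3% L-arabinose, DNA abundance read by NGS, three biological replicates, DESeq2 with apeglm shrinkage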
# method-notes: shrunken log2 fold change of peptide-encoding DNA abundance (4.5 h post-induction vs induction); higher = less antimicrobial activity (less host growth inhibition)
# conditions-used: time post-induction: 4.5 h; library: site-saturation at positions 5, 18, 19, 20
I'd appreciate it if you could label each record using shrunken log2 fold change and these ranges: A = under -0.1, B = from -0.1 up to 0.1, C = 0.1 and over

Would you please look over these solved cases?
sequence-chain	assigned-label
RRIRTRPPRLPRPRPRPINSPRP	A
RRIRRRPPRLPRPRPRPFTHPRP	A
RRIRFRPPRLPRPRPRPGKPPRP	B
RRIRKRPPRLPRPRPRPFGEPRP	C

Read the next record carefully.
Exam item: Class for RRIRGRPPRLPRPRPRPNQNPRP ?
Marked response: C
